Hey, just so you know, these numbers are from paper PMC8360279.

assay: Pharmacokinetics in rat plasma after oral administration of PA, PMRP or ATR (HPLC-MS and GC-MS); conditions: rats; PA 4.32 g/kg vs PMRP or ATR 2.16 g/kg, oral
measured.endpoint: Plasma concentration after oral PA compared to the level after PMRP or ATR

// known answers, use as guide
>>> print(df.to_string())
                                   molecule  reported_measurement
0                   O=C(O)c1cc(O)c(O)c(O)c1               similar
1                  C/C=C/c1cc(OC)c(OC)cc1OC             increased
2  OCC1OC(Oc2c(O)cc(O)cc2C=Cc2ccc(O)cc2)C(O)C(O)C1O (stereo not drawn)             increased
3                  C/C=C\c1cc(OC)c(OC)cc1OC               similar
4                     COc1cc(OC)c(OC)cc1C=O             increased

# next molecule below
Look up Plasma concentration after oral PA compared to the level after PMRP or ATR for this molecule: C/C=C/c1ccc(OC)c(OC)c1 [cis-methyl isoeugenol] similar

====

test: in vivo; settings: male, Sprague-Dawley, rat, po, 2.16 g/kg, Tmax, rat plasma, oral ATR extract 2.16 g/kg once, mean ± S.D., n = 6
measured.endpoint: Tmax (h)
Numeric only. Scale: h

Look up Tmax for this compound: COc1cc(OC)c(OC)cc1C=O 2.21

====

assay: Pharmacokinetics in rat plasma after oral administration of PA, PMRP or ATR (HPLC-MS and GC-MS); details: male, Sprague-Dawley, rat, plasma, po, 2.16 g/kg
# AUC(0-t) annotations
Numeric only. Scale: µg·h/mL

In [3]: df
Out[3]:
                                   compound  reported_measurement
0                  C/C=C/c1cc(OC)c(OC)cc1OC                   0.6
1  C/C=C/c1ccc(OC)c(OC)c1 [cis-methyl isoeugenol]                0.0938
2  OCC1OC(Oc2c(O)cc(O)cc2C=Cc2ccc(O)cc2)C(O)C(O)C1O (stereo not shown)                 0.102

# next compound below
Look up AUC(0-t) for this compound: C/C=C\c1cc(OC)c(OC)cc1OC 0.603

====

# half-life annotations
test: Pharmacokinetics in rat plasma after oral administration of PA, PMRP or ATR (HPLC-MS and GC-MS); conditions: male, Sprague-Dawley, rat, plasma, po, 2.16 g/kg
Numeric only. Scale: min

In [3]: df
Out[3]:
                                   compound  reported_measurement
0  C/C=C/c1ccc(OC)c(OC)c1 [cis-methyl isoeugenol]                   450
1  OCC1OC(Oc2c(O)cc(O)cc2C=Cc2ccc(O)cc2)C(O)C(O)C1O (stereo not shown)                  10.2
2                  C/C=C/c1cc(OC)c(OC)cc1OC                   708

# next compound below
Look up half-life for this compound: C/C=C\c1cc(OC)c(OC)cc1OC 640
